- assay.info: Chemical stability in 0.01 mM phosphate buffered saline assessed as purity of parent compound after 1 hr by HPLC analysis
- Format: physicochemical
- experimental.setup: read-out: Activity
quantity.name: remaining at 1 h (%)
State just the number; it will be interpreted in %.

Task: Entry under review: CCN(CC)C(=O)c1nc2ccccc2c(-c2ccccc2)c1CI . Reported remaining at 1 h?
Result: 96

====

- experimental.target: Translocator protein (Rattus norvegicus, UniProt P16257)
- Sequence (P16257 whole entry, looked up): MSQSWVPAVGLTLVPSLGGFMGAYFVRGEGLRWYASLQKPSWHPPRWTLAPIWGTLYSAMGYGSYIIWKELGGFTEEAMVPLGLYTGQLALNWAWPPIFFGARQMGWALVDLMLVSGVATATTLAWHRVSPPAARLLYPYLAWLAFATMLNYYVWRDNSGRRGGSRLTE
quantity.name: Ki

Task: Can you look up Ki on Translocator protein (Rattus norvegicus, UniProt P16257) for CN(Cc1cccc(I)c1)C(=O)c1cc(-c2ccc(F)cc2)c2ccccc2n1 ?
Result: > 1000 nM

Sourced from ChEMBL document CHEMBL1159094
